Task for the reader: assign each of the following molecules its reported Kd.
TARGET OR SYSTEM: CCL13_HUMAN (Homo sapiens, UniProt Q99616)
Sequence (Q99616 17-98): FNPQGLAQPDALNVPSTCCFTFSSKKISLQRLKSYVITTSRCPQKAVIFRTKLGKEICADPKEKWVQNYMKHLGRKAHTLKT
TEST: Biolayer interferometry (BLI) binding
Give bare numbers, in nM.

Example entries begin here.
- MOLECULE: "P467_RHIPU: tick CKBP (evasin), Rhipicephalus pulchellus; RPU-01 stated identical (protein, listed as Rhipicephalus pulchellus) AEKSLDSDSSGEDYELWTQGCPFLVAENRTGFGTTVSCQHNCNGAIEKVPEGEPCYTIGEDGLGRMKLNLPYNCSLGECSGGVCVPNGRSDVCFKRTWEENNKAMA"
  UNIT SPEC: "nM"
  Kd: 2.56
- MOLECULE: "P546_AMBCA: tick CKBP, Amblyomma cajennense (protein, Amblyomma cajennense) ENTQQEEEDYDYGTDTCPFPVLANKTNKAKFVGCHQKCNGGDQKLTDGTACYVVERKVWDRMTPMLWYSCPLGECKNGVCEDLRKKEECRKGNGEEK"
  UNIT SPEC: "nM"
  Kd: 13

--- query ---
Kd for P1183_AMBTR: tick CKBP, Amblyomma triste (protein, Amblyomma triste) EAPKDDFEYDGGCPFVVLDNGTHVKPAGCSHLCNGAPETLDNIECYNVTEEVAKRMTPGIPYACWLGWCSKGECKRDNRTEVCYRGSEEE is 5.7

// data source = patent US20200247855A1
